- protocol.notes: soluble on expression in E. coli; label from the status in PepcDB or PDB records
property.label: soluble on expression in E. coli

Can you share its soluble on expression in E. coli? I mean this sequence: MQDDPRYRVEVEVSPRFLAHQSTPEEGRYAFAYSIRIQNAGAVPARLIARHWKITDANGRTEQVDGEGVVGEQPRLRPGEAFHYTSGVLLETEQGQMQGYYDMVADDGTEFTAPIAAFVLSVPRTLHLEHHHHHH
soluble

# iterate: GSHMSNAKTKLGITKYSIVTNSNDSVTLRLMTEHDLAMLYEWLNRSHIVEWWGGEEARPTLADVQEQYLPSVLAQESVTPYIAMLNGEPIGYAQSYVALGSGDGWWEEETDPGVRGIDQLLANASQLGKGLGTKLVRALVELLFNDPEVTKIQTDPSPSNLRAIRCYEKAGFERQGTVTTPDGPAVYMVQTRQAFERTRSDA
soluble

Source listed as the DeepSol protein solubility set.
